Recorded measurements of composite z-score, one per entry
Target: Streptavidin (Streptomyces avidinii) (UniProt P22629)
Sequence (P22629 whole entry, looked up): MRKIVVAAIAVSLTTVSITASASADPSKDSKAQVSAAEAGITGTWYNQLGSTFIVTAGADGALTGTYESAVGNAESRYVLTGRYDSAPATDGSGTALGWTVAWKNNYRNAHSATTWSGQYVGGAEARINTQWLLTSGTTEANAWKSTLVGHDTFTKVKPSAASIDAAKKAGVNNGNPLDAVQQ
Experiment: streptavidin binders on small-molecule microarray, primary screen, artefact control for SMM compound annotation, biophysical, 635/667 nm fluorescence (AID 1147);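 note: signal reflects streptavidin binding to arrayed compounds as a control protein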
Details: streptavidin binding, higher = more signal
Please respond with just the number, no unit label.

Entry O=C(NCC(F)(F)F)[C@@H]1c2ccccc2C(=O)N(Cc2cc(F)cc(C(F)(F)F)c2)[C@H]1c1ccc(CO)cc1 , tested on Streptavidin (Streptomyces avidinii) (UniProt P22629), has a reported composite z-score of -1.24

Entry O=C1NC(=O)C2C1C=CC(C(O)CCc1ccccc1)N2Nc1ccc(Cl)cc1Cl (stereo unspecified) , tested on Streptavidin (Streptomyces avidinii) (UniProt P22629), has a reported composite z-score of 0.209

Entry O=c1n(-c2ccccc2)c(=O)n2n1CC(COc1ccccc1)=C([C@H](O)CCc1ccccc1)[C@@H]2CO , tested on Streptavidin (Streptomyces avidinii) (UniProt P22629), has a reported composite z-score of -0.275

Next:
Entry CCOC(=O)C1=CC[C@@H](c2ccccc2C(F)(F)F)N(S(=O)(=O)c2ccc(C)cc2)[C@H]1c1ccc(C#N)cc1 , tested on Streptavidin (Streptomyces avidinii) (UniProt P22629), has a reported composite z-score of 1.11

Entry CC(C)C[C@@H]1NC(=O)[C@@H]2C[C@H](C(=O)NCCCCCN)[C@H](c3ccc(O)cc3)N2C1=O , tested on Streptavidin (Streptomyces avidinii) (UniProt P22629), has a reported composite z-score of 1.01

###

Assay: binders from COS7 lysate, DM2A8 probe, primary screen, torsin A project, cell lysate, small-molecule microarray, fluorescence 635/667 (AID 1065)
Conditions: higher = more signal, COS7 lysate expressing mutant human TOR1A
Class (by composite z-score) -- bottom range: < 0.02; center range: ≥ 0.02 and < 0.2; top range: ≥ 0.2

query: // bin(item) where item = O=C(NCC(F)(F)F)[C@@H]1c2ccccc2C(=O)N(Cc2cc(F)cc(C(F)(F)F)c2)[C@H]1c1ccc(CO)cc1
result: bottom range

Next:
query: // bin(item) where item = COCCOC(=O)N1C(=O)[C@@]2(c3cc(C#CC4=CCCCC4)ccc31)[C@H](c1ccc(OCCO)cc1)N1[C@H](c3ccccc3)[C@H](c3ccccc3)OC(=O)[C@H]1[C@@H]2C(=O)NC[C@H](O)c1ccccc1
result: top range

query: // bin(item) where item = CCOc1cc(C(O)C2C=CC3C(=O)N(C)C(=O)C3N2Nc2ccccc2)ccc1O (centres undefined)
result: center range

query: // bin(item) where item = O=C(NCC(F)(F)F)[C@@H]1c2ccccc2C(=O)N(Cc2ccccc2C(F)(F)F)[C@H]1c1ccc(CO)cc1
result: bottom range

query: // bin(item) where item = CCCCCCCCCCC(O)C1C=CC2C(=O)N(C)C(=O)C2N1Nc1ccc([N+](=O)[O-])cc1[N+](=O)[O-] (centres undefined)
result: bottom range

query: // bin(item) where item = COc1ccc(-c2nc(-c3ccccc3)c3c(c2C)CO[Si]3(C(C)C)C(C)C)cn1
result: center range

query: // bin(item) where item = COCCCNC(=O)[C@]1(CCS(=O)(=O)c2ccccc2)N=C(c2ccc(OCCCO)cc2)O[C@@H]1c1ccccc1N=[N+]=[N-]
result: top range

query: // bin(item) where item = CC(=O)NCCCC[C@@H]1NC(=O)[C@H]2C[C@@H](C(=O)NCCCC[N+](C)(C)C)[C@@H](c3cccc(OCCO)c3)N2C1=O
result: top range

query: // bin(item) where item = C=CCC(OC(C)=O)[C@@H]1[C@@H](N(Cc2cccc3ccccc23)C(=O)Cc2ccc(OC)cc2)c2cc(OCCCO)ccc2N1C(=O)c1ccc2ccccc2n1 (some centres undefined)
result: center range

query: // bin(item) where item = O=C1O[C@H](c2ccccc2)[C@H](c2ccccc2)N2[C@H]1[C@@H](C(=O)Nc1nc3ccccc3s1)[C@]1(C(=O)Nc3ccccc31)[C@H]2c1ccc(OCCO)cc1
result: top range

query: // bin(item) where item = O=C1C[C@@](C(=O)NCCN2CCOCC2)(c2ccc([N+](=O)[O-])cc2)[C@@H](c2ccc(CO)cc2I)N1C1CCCCC1
result: bottom range

query: // bin(item) where item = C=C(COC)/C(=C/C[C@H](OC(=O)c1ccncc1)c1ccccc1OCCO)c1cnc2ccccc2c1
result: center range

###

Assay: binders of probe aFGF2 on microarray, primary screen, stem cell growth factor project, biochemical, small-molecule microarray, fluorescence 635/667 (AID 1067);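 note: measures binding of biotinylated aFGF2 protein to printed compounds on slides; z-score merges feature fluorescence and signal-to-noise across triplicate slides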
Conditions: higher = more signal
Given measured composite z-score, output Met if it is greater than or equal to 0.008 and Not met if not.

These recorded examples may help you get a feel for the data.
query: For this compound, is measured composite z-score 0.008 or higher? Cc1cc(C)c(C(O)C2C=CC3C(=O)N(c4ccccc4)C(=O)C3N2Nc2ccc(C(C)C)cc2)c(C)c1 (configuration not stated)
result: Met

query: For this compound, is measured composite z-score 0.008 or higher? [N-]=[N+]=NCc1ccccc1C[C@]1(C(N)=O)N=C(c2ccc(OCCCO)cc2)O[C@H]1c1ccccc1
result: Not met

query: For this compound, is measured composite z-score 0.008 or higher? COCCOC(=O)N1C(=O)[C@@]2(c3cc(C#Cc4ccc(OC)cc4)ccc31)[C@H](C(=O)Nc1nc3ccccc3s1)[C@H]1C(=O)O[C@H](c3ccccc3)[C@H](c3ccccc3)N1[C@@H]2c1ccc(O)cc1
result: Met

Next:
query: For this compound, is measured composite z-score 0.008 or higher? COC(=O)[C@@]1(Cc2ccc(F)cc2)[C@H]2c3cc(C(=O)N(C)C)n(CCc4ccc(O)c(OC)c4)c3C[C@H]2CN1C(=O)c1ccccc1
result: Met

query: For this compound, is measured composite z-score 0.008 or higher? C=CCN1C(=O)[C@@]2(CCS(=O)(=O)c3ccccc3)N=C(c3ccc(OCCCO)cc3)O[C@H]2c2ccccc21
result: Not met

query: For this compound, is measured composite z-score 0.008 or higher? Cc1ccc(S[C@]2(C(=O)NCC(F)(F)F)CC(=O)N(C3CCCCC3)[C@@H]2c2ccc(CO)cc2I)cc1
result: Met

query: For this compound, is measured composite z-score 0.008 or higher? CC(C)C[C@@H]1NC(=O)[C@@H]2C[C@H](C(=O)NCCCCCN)[C@H](c3ccc(O)cc3)N2C1=O
result: Not met

###

Recorded measurements of composite z-score, one per entry
Biological target: Neurogenic locus notch homolog protein 2 (Homo sapiens)
Experiment: Notch2 binders on small-molecule microarrays, primary screen, biochemical, small-molecule microarray, 635 nm fluorescence, stem cell growth factors (AID 1073)
Conditions: Notch2 binding, higher = more signal

So for COc1ccc([Si](C)(C)[C@@H]2[C@@H](CC(=O)N3Cc4ccccc4C[C@H]3CO)O[C@]3(C(=O)N(C)c4ccccc43)[C@H]2C)cc1 , the logged composite z-score turned out to be 0.356

So for COCCCNC(=O)[C@@]1(Cc2ccccc2N=[N+]=[N-])COC(c2ccc(OCCCO)cc2)=N1 , the logged composite z-score turned out to be 1

So for CC(CO)N1C(=O)[C@@H]2[C@H]3C(=O)OCC=C[C@H]3OC23C=CCN(CCN2CCOCC2)C(=O)[C@@H]13 (stereo partly drawn) , the logged composite z-score turned out to be -0.256

So for COCCOC(=O)N1C(=O)[C@@]2(c3cc(C#Cc4ccc(OC)cc4)ccc31)[C@H](c1ccc(O)cc1)N1[C@H](c3ccccc3)[C@H](c3ccccc3)OC(=O)[C@H]1[C@@H]2C(=O)N1CCCCCCC1 , the logged composite z-score turned out to be 0.679

So for O=C1O[C@@H](c2ccccc2)[C@@H](c2ccccc2)N2[C@@H](c3ccc(OCCO)cc3)[C@]3(C(=O)Nc4ccccc43)[C@@H](C(=O)O)[C@H]12 , the logged composite z-score turned out to be 0.381

So for COC(=O)c1c(CC[C@@H](CO)NC(=O)N2CCC[C@H]2Cn2cc(Cc3ccccc3)nn2)oc(C(C)=O)c1C(=O)OC , the logged composite z-score turned out to be 0.0554

So for Cc1ccc(S[C@]2(C(=O)O)CC(=O)N(C3Cc4ccccc4C3)[C@@H]2c2ccc(CO)cc2)cc1 , the logged composite z-score turned out to be -0.267

So for COc1ccccc1CN1C(=O)c2ccccc2[C@@]2(Cc3ccccc3N(CC(F)(F)F)C2=O)[C@@H]1c1ccc(CO)cc1 , the logged composite z-score turned out to be 0.166

###

Target: Homeobox protein Hox-A13 (Mus musculus) (UniProt Q62424)
Sequence (Q62424 whole entry, looked up): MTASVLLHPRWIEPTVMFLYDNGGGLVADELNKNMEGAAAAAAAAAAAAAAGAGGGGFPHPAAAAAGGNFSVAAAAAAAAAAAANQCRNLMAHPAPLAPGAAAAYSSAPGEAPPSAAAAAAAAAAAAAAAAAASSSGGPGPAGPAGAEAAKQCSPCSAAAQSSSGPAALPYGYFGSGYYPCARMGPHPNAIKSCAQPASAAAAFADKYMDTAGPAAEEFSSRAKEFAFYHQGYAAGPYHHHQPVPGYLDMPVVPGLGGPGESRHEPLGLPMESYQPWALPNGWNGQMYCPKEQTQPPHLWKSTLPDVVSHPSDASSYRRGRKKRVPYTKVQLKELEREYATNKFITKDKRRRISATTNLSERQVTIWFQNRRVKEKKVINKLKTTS
Experiment: inhibitors of HoxA13-DNA binding, primary screen, biochemical, fluorescence polarization, labeled oligonucleotide (AID 1185)
Details: 15 min, higher = more signal, called active from +8 up or from −8 down
Recorded measurements of z-score, one per entry
Please respond with just the number, no unit label.

Below are worked cases with known answers.
So for Cc1cc(C)c(C(O)C2C=CC3C(=O)N(c4ccccc4)C(=O)C3N2Nc2ccc(C(C)C)cc2)c(C)c1 (centres undefined) , the logged z-score turned out to be -3.21

So for COC(=O)[C@@]1(Cc2ccc(OC)cc2)[C@H]2c3cc(C(=O)N(C)C)n(Cc4ccc(Cl)c(C(F)(F)F)c4)c3C[C@H]2CN1C(=O)c1ccccc1 , the logged z-score turned out to be -3.47

So for COc1ccc(-c2nc(-c3ccccc3)c3c(c2C)CO[Si]3(C(C)C)C(C)C)cn1 , the logged z-score turned out to be -3.37

Next:
So for [N-]=[N+]=NCc1ccccc1C[C@@]1(C(=O)N2CCCCC2)N=C(c2ccc(OCCCO)cc2)O[C@@H]1c1ccccc1 , the logged z-score turned out to be -4.86

These entries and their values trace back to PubChem BioAssay.
